target: Sox2 DBD, isolated, unlabelled (UniProt P48431 37-120); test: smFRET titration; 200 mM salt; smFRET: 165 mM KCl or 200 mM salt (Supplementary Table 4), buffer details not in material; NMR: 20 mM NaH2PO4, 50 mM NaCl, 5 mM DTT, pH 5.5, 15 C; conditions: protein: recombinant; tags: His6-SUMO removed by ULP1; label: Cy3B and CF660R, one on each 5' end; blunt
Sequence (P48431 37-120): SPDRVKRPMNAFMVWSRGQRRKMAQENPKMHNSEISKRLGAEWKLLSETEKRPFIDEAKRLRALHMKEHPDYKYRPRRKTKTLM
pKd: −log10 of the molar value.
Value type: pKd

[
  {
    "Binder": "15 bp nonspecific DNA, labelled (dsDNA, 5' C6-amino linker on both strands) DNA 1: TCTATCTGTGTATGT DNA 2: ACATACACAGATAGA",
    "Value type": "pKd",
    "Number": 7.96
  }
]
